// reported %Inh for each item listed
# System: TEC;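 also: KINOMEscan kinase panel screen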
# CONDITION INFO: concentration: 1 μM, replicates: in singlicate; n = 1
Answer format: numeric, % implied, no suffix.

# count of solved cases: 5
[[record]]
given_smiles = "CSc1nn2c(=O)cc(N3CCOCC3)nc2n1Cc1cccc(C(F)(F)F)c1C"
measurement_kind = "%Inh"
meas_value = 7

[[record]]
given_smiles = "Cc1cccc(-c2nc(Nc3ccc4[nH]ncc4c3)c3ccccc3n2)n1"
measurement_kind = "%Inh"
meas_value = 3

[[record]]
given_smiles = "Cc1c(Cn2ccn3c(=O)cc(N4CCOCC4)nc23)cccc1C(F)(F)F"
measurement_kind = "%Inh"
meas_value = 0

[[record]]
given_smiles = "CN1C(=O)C(Nc2ccc(Cl)c(C(=O)O)c2)=C(c2ccc(Cl)cc2)C1=O"
measurement_kind = "%Inh"
meas_value = 0

[[record]]
given_smiles = "Cc1csc(-c2nc(Nc3ccncc3)c3ccccc3n2)n1"
measurement_kind = "%Inh"
meas_value = 9


// moving on: another record for %Inh
The compound listed as "Cc1ccc(NC(=O)Nc2cccc(Cl)c2)cc1-c1ccc(C(=O)Nc2ccncc2)cc1" has a reported %Inh of 13

// data source = paper PMC5540273
